Data credit: PubChem BioAssay AID624302

# Target Or Test System: Nuclear receptor subfamily 0 group B member 1 (Homo sapiens) (UniProt P51843)
# Sequence (P51843 207-470 limits assumed): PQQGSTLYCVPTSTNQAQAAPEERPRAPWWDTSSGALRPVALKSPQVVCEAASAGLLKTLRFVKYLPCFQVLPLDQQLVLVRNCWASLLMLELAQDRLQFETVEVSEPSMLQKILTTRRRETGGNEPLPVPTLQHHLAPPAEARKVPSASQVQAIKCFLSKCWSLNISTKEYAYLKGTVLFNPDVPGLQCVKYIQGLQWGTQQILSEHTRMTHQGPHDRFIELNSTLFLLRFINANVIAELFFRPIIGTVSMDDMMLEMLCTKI
# Test Summary: relief of Gal4-DAX1 luciferase repression – cell-based, luminescence, HEK293, powder samples, assay provider, dose response (AID 624302)
# Setup Conditions: luciferase reporter luminescence, at 100 µM, active compounds read high
Measured Endpoint: relative luminescence ratio

Look over these answered cases.
>>> reported_result("CSc1ccccc1C(=O)Nc1ccc2c(c1)OCCO2")
0.51
>>> reported_result("COc1cccc(C(=O)NC(C)c2cc(OC)ccc2OC)c1 (stereo unspecified)")
0.3
>>> reported_result("COc1ccc(OC)c(C(C)NC(=O)c2ccc(Cl)cc2)c1 (stereo unspecified)")
0.3
>>> reported_result("COc1ccc(OC)c(C(C)NC(=O)c2ccc3c(c2)OCCO3)c1 (stereo unspecified)")
0.31

I: Cn1c(=O)n(C)c2cc(C(=O)Nc3ccc4c(c3)OCO4)ccc21
II: CN(C)c1cccc(C(=O)Nc2ccc3c(c2)OCCO3)c1
Input pair: I , II . Output: entry with lower relative luminescence ratio. Write down the label of the entry you select. II
(II: 0.05, I: 1.77)
